- System: NCI-H460 lung
- Assay method text: NCI tumour cell line growth inhibition, 48 h
Listed below: TGI values for each entry.

Note to self: TGI recorded for `CCCCC#Cc1c(I)n(C)c(=O)[nH]c1=O` was 39.7 µM

So for CCCCCCCCCCCCC(O)c1ccco1 (configuration not stated) , the logged TGI turned out to be > 100 µM

The compound identified as COc1ccccc1C1C(C#N)=C(N)Oc2n[nH]c(C)c21 (configuration not stated) registered its TGI at > 100 µM

Looking up `CC(C)Oc1cccc(N2C(Nc3ccccc3)=Nc3ccncc3S2(=O)=O)c1` , I see its TGI listed as > 100 µM

***
GET /value?item= CCOC1=C(c2ccccc2)N2CCCCC2O1 (configuration not stated) &field=TGI returns 15 µM

Field TGI (entry `Cc1nc(-c2cc3ccccc3oc2=O)cs1` ) reads > 100 µM

The recorded TGI for entry `COc1ccc(Oc2ccccc2N)cc1` equals > 100 µM

----------
- Test system: EKVX NSCLC
- Assay method text: NCI tumour cell line growth inhibition, 48 h
Readout type: TGI

Record excerpt, results attached:
So for `COCCOc1cc(C)cc(/C=C(C)/C=C/C2=C(C)CCCC2(C)C)n1` , the logged TGI turned out to be > 100 µM

`COc1cc2c(c(OC)c1OC)-c1ccc(SC)c(=O)cc1[C@@H](NCc1ccc([N+](=O)[O-])cc1)CC2` yielded TGI of > 100 µM

Short answer for `COc1ccc(-c2cncn2-c2cc(OC)c(OC)c(OC)c2)cc1` : TGI was > 100 µM

New cases:
Reported TGI ( COc1ccc2cc(C(C)C(=O)N3C(=O)OCC3(C)C)ccc2c1 (stereo not drawn) ) = > 100 µM

According to the records, this compound Cc1ccc2nc(NC(=O)C(=O)C(C#N)c3ccc(Cl)cc3)sc2c1 (stereo not drawn) displays TGI of > 50 µM

Given item `Oc1ccc(Oc2cc3c(cc2Oc2ccc(O)cc2)-c2nc-3nc3[nH]c(nc4nc(nc5[nH]c(n2)c2cc(Oc6ccc(O)cc6)c(Oc6ccc(O)cc6)cc52)-c2cc(Oc5ccc(O)cc5)c(Oc5ccc(O)cc5)cc2-4)c2cc(Oc4ccc(O)cc4)c(Oc4ccc(O)cc4)cc32)cc1` , the value recorded as its TGI is > 100 µM

----------
- Test system: RXF 393 renal
- Assay method text: NCI tumour cell line growth inhibition, 48 h; in the data active = GI50 below about 0.43 µM; inactive = the rest
Result category, one only: class 1 (active), class 0 (inactive)

Call for entry `ClCc1ccccc1Cn1cnc2ncnc(Cl)c21` : class 0

Which result was noted for this compound in the test: CC(=O)OC12C=C(C)C(C(C)C1)C1C(=O)N(CCN3CCCCC3)C(=O)C12 (configuration not stated) class 0

Status in this test for O=C(NNc1ccc(Cl)cc1)C1CCC(CNS(=O)(=O)c2ccccc2Cl)CC1 (configuration not stated) ? class 0

Check the results log: what was the call for `CCCCC#Cc1c(I)n(C)c(=O)[nH]c1=O` ? class 0

Dear colleague, could you share the recorded outcome for `CSc1nc2nc3c(nc2c(=O)n1C)C(=O)c1ccccc1C3=O` when you have a moment? class 1

Would you mind telling me which call this test gave C=C1C(O)C2CC(C)(CO)C(=O)C2=C(CC(C)C)C12CC2 (configuration not stated) ? class 0

Outcome logged for COc1ccccc1S(=O)(=O)Nc1ccc2c3c(cc(CCC(=O)NCCCCNc4cccc5c4C(=O)N(C4CCC(=O)NC4=O)C5=O)cc13)C(=O)N2C (configuration not stated) in this assay: class 0
